Source: patent US20200339537A1

Examples of compounds with documented inhibition at 10 µM follow.
- system tested: binding between p34 protein and NEDD4-1 protein (Homo sapiens, UniProt P46934+Q9UHV2)
- Construct: FLAG or 6xHis (known only from the detection antibodies)
- Sequence (P46934 whole entry): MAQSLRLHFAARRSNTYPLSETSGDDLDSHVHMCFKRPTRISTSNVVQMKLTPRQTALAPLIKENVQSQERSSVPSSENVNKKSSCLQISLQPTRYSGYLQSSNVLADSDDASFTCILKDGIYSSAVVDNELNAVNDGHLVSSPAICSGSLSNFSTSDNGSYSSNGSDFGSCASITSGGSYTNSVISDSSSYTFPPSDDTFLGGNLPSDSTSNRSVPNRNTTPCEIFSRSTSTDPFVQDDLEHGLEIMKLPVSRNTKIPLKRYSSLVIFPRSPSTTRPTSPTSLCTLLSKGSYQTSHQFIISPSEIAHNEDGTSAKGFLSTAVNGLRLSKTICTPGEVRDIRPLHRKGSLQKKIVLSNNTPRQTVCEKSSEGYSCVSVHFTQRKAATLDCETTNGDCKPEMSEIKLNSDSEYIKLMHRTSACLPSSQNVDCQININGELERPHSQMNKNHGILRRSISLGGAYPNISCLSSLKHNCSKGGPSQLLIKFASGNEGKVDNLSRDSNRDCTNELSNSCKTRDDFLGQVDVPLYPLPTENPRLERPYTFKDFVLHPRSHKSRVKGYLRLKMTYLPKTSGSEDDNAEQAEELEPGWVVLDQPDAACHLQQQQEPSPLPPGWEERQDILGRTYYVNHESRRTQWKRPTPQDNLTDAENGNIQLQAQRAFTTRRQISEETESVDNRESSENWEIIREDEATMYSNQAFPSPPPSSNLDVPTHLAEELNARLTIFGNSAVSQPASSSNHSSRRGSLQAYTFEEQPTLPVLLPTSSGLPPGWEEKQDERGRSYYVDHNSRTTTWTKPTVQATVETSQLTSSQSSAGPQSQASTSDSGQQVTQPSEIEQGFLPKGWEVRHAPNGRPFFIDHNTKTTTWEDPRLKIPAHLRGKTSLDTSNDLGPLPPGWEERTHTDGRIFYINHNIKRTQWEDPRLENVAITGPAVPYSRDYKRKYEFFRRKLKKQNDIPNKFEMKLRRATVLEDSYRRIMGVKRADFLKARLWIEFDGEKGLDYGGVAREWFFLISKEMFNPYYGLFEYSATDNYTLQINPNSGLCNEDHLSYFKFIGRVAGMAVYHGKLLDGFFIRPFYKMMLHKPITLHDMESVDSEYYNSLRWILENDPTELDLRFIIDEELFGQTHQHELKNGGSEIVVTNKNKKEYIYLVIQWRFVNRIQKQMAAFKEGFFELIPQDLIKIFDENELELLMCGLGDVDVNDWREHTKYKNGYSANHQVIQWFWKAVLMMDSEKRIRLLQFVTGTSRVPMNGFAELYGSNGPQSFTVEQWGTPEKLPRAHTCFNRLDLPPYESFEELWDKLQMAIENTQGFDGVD
- Sequence (Q9UHV2 whole entry): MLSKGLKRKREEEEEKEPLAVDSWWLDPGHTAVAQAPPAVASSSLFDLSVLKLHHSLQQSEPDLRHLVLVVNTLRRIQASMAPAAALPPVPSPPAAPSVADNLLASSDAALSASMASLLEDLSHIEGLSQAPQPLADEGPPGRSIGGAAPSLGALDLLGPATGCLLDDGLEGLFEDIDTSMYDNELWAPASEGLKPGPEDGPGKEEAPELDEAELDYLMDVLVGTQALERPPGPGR
- run description: Inhibitory activity on binding between p34 and NEDD4-1, FRET (HTRF) assay
- protocol conditions: pH 7.4, compound 10 μM; 1×PBS pH 7.4, 0.1% BSA, 2% DMSO; 384-well
Kindly provide the numeric value in % only, without the unit symbol.

The examples below pair each entry with its known result.
O=C(NCc1cncs1)C1CCN(Cc2c[nH]c3ccc(C(F)(F)F)cc23)CC1 [Example 31] : 58.6
Cc1ccc2nc(CNC(=O)C3CCN(Cc4ccc5[nH]ccc5c4)CC3)[nH]c2c1 [Example 20] : 51.5
O=C(NCc1nccs1)C1CCN(C(=O)c2ccc3[nH]ccc3c2)CC1 [Example 28] : 34.5
O=C(NC(Cc1ccccc1)c1nc2ccccc2[nH]1)C1CCN(Cc2ccc3[nH]ccc3c2)CC1 (centres unmarked) [Example 21] : 56.6
Cc1ccc2[nH]c(CNC(=O)N3CCN(Cc4c[nH]c5ccc(Cl)cc45)CC3)nc2c1 [Example 71] : 33.7

Exercise: Tell me the measured inhibition at 10 µM of O=C(NCc1nc2ccccc2[nH]1)C1CCN(Cc2c[nH]c3cc(F)c(F)cc23)CC1 [Example 60] , please.
Solution: 38.4

Exercise: Follow-up entry: CCC(NC(=O)C1CCN(Cc2c[nH]c3ccc(C(F)(F)F)cc23)CC1)c1nc2ccccc2[nH]1 (centres unmarked) [Example 35]
Solution: 45.5

Exercise: What do you have for O=C(NCc1nc2cc(Cl)ccc2[nH]1)C1CCN(Cc2c[nH]c3ccc(Cl)cc23)CC1 [Example 4] ?
Solution: 30.6

Exercise: Another: O=C(NCc1cnccn1)C1CCN(Cc2c[nH]c3ccc(C(F)(F)F)cc23)CC1 [Example 38]
Solution: 36.6

Exercise: Now consider O=C(NCc1nc2ccccc2[nH]1)C1CCN(Cc2c[nH]c3ccc(Cl)cc23)CC1 [Example 45] .
Solution: 33.8
